Assay: qHTS Assay for inhibitors of the human cytomegalovirus (HCMV)
Settings: HFF cells, HCMV-luciferase reporter, 72 h; at 57.5 µM
Hit rate of the full screen: of about 410,000 compounds, about 18,000 (4.4%) were called active. Not shown: some 7% with an inconclusive outcome. No stated cut-off is given here; in the data, active means activity change below about -60%; inconclusive means no clear call, values can overlap the other calls; inactive means above about -39%. What follows is part of a selection rich in actives, with near analogues and random picks from the rest.
Hi! Could you answer with just one of these? Y (active), N (inactive)

[
  {
    "molecule": "COC(=O)c1ccccc1NC(=O)c1ccc(COc2ccccc2Cl)o1",
    "classLabel": "N"
  },
  {
    "molecule": "CC(C)c1ccc(CN2C(=O)C(n3ccc4ccccc43)c3cccc(F)c32)cc1 (configuration not stated)",
    "classLabel": "N"
  },
  {
    "molecule": "CC(C)Cn1c(-c2ccc(S(=O)(=O)N3CCOCC3)cc2)csc1=Nc1cc(Cl)ccc1Cl",
    "classLabel": "N"
  },
  {
    "molecule": "CCN(CC)c1ccc(/C=N/Nc2nc(C)cc(C)n2)c(O)c1",
    "classLabel": "Y"
  },
  {
    "molecule": "CCc1nc(C)cn1S(=O)(=O)c1cc([N+](=O)[O-])ccc1Cl",
    "classLabel": "Y"
  }
]

Please share the test call associated with Cc1cc(NC(=O)c2cccc(Cl)c2)ccc1-c1cc2ccccc2oc1=O .
N

Please share the test call associated with CCN(CC)c1ccc(/C=N/NC(=O)c2cnccn2)c(O)c1 .
Y

Please share the test call associated with CCc1cc2c(NC3CCCC3)ncnc2s1 .
Y
